- EXPERIMENTAL DETAILS: Δn (refractive index anisotropy) measurement, wedge-shaped liquid crystal cell
- Format: physicochemical
- RECORDED CONDITIONS: at 550 nm and 30° C.; for compounds liable to crystallize, estimated from extrapolated values of mixtures with other liquid crystals
PARAMETER: Δn
# answer = number (no unit)

C=CC(=O)OCCCCOc1ccc(C#Cc2ccc(NC(=O)c3ccc(OCCCCOC(=O)C=C)cc3)cc2)cc1 | 0.289
C=CC(=O)OCCCCOc1ccc(C#Cc2ccc(NC(=O)c3ccc(OCCCCOC(=O)C=C)cc3)cc2C)cc1 | 0.282
C=CC(=O)OCCCCOc1ccc(C#Cc2ccc(C(=O)Nc3ccc(C#Cc4ccc(OCCCCOC(=O)C=C)cc4)cc3C(F)(F)F)cc2)cc1 | 0.370

For the compound shown here, `C=CC(=O)OCCCCOc1ccc(C#Cc2ccc(NC(=O)c3ccc(OCCCCOC(=O)C=C)cc3)c(C)c2)cc1` , give the reported Δn.
0.280

Try this compound next: C=CC(=O)OCCCCOc1ccc(C(=O)Oc2ccc(C#Cc3ccc(CCCCCCC)cc3)cc2)cc1 [Compound b-1, reference compound]
0.220

Same lookup for `C=CC(=O)OCCCCOc1ccc(C#Cc2ccc(NC(=O)c3ccc(OCCCCOC(=O)C=C)cc3)c(OC)c2)cc1` , please.
0.301

Next compound: `C=CC(=O)OCCCCOc1ccc(C(=O)Nc2ccc(C#Cc3ccc4nc(SCCCCOC(=O)C=C)sc4c3)cc2C(F)(F)F)cc1`
0.304

Let us now turn to `C=CC(=O)OCCCCOc1ccc(C#Cc2ccc(NC(=O)c3ccc(OCCCCOC(=O)C=C)cc3)c(F)c2)cc1`
0.278

Another compound: `C=CC(=O)OCCCCOc1ccc(C#Cc2ccc(NC(=O)c3ccc(OCCCCOC(=O)C=C)cc3)c(C(F)(F)F)c2)cc1`
0.287
